Values compiled from ChEMBL document CHEMBL1177790.

Catalogue of pIC50 values
Molecular target: CDK6/cyclin D1 (Homo sapiens)
Sequence (P24385 whole entry): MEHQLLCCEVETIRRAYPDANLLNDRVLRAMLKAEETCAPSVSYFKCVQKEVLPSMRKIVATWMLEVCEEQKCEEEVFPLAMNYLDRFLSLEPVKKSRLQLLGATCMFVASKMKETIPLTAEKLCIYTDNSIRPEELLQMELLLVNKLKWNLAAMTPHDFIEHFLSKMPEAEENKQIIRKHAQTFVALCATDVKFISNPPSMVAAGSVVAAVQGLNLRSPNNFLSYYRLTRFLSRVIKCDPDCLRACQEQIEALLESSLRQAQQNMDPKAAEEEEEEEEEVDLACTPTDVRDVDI
Sequence (Q00534 whole entry): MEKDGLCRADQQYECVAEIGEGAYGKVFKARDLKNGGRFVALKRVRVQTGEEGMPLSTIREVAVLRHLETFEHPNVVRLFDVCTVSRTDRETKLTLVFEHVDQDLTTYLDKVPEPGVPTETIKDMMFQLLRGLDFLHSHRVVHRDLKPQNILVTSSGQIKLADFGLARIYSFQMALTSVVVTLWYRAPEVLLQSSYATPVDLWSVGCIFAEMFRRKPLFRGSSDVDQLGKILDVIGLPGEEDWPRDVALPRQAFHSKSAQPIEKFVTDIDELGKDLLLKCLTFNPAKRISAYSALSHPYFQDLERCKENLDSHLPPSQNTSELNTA
Test: Inhibition of human CDK6/Cyclin D1
// pIC50 here means minus log10 of the molar concentration (mol/L)

Known results for compounds:
O=S(=O)(Nc1cccc(C(F)(F)F)c1)c1cc(Cl)c(Cl)cc1Cl    4.23
O=C(CBr)N(c1ccccc1)S(=O)(=O)c1cc(Cl)sc1Cl    4.46
Cc1ccc(NS(=O)(=O)c2cc(Cl)sc2Cl)cc1    4.29
Cc1ccc(Cl)cc1S(=O)(=O)Nc1ccc(Cl)c(Cl)c1    3.96

Shift focus to the following entry.
Exercise: Notebook entry, CDK6/cyclin D1 (Homo sapiens) assay: pIC50 of "Cc1ccc(N(SC(Cl)(Cl)Cl)S(=O)(=O)c2cc(Cl)sc2Cl)cc1" = ?
Solution: 4.74

* * *

The molecules listed here are annotated with their log10(IC50).
Biological target: Cyclin-dependent kinase 1/cyclin B1 (Homo sapiens, UniProt P06493)
Sequence (P06493 whole entry): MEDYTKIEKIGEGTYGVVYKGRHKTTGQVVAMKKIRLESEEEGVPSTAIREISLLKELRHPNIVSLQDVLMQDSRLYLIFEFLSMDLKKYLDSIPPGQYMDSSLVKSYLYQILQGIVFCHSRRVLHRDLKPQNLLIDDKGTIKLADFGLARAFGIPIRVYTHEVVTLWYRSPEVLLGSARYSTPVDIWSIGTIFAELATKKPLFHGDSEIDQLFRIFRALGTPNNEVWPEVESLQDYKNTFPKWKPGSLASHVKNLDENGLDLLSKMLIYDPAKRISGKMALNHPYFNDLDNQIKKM
Sequence (P14635 whole entry, further chain): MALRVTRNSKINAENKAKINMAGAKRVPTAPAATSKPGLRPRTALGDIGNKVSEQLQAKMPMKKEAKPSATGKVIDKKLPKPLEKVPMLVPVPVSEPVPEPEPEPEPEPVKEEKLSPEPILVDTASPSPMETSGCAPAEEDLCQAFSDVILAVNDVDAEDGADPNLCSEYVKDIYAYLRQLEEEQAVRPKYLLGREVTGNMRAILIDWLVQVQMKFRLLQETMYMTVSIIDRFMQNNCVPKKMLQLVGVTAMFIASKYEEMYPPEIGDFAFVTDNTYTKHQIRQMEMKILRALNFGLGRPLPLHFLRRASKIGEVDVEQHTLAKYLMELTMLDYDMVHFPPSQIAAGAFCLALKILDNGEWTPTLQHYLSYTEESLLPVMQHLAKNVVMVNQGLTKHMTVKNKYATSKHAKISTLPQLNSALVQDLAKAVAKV
Experiment: Inhibition of human CDK1/cyclin B
Recorded IC50 (log10, µM)

Answered cases to consult:
Cc1ccc(Cl)cc1S(=O)(=O)Nc1ccc(Cl)c(Cl)c1    -0.10
O=C(CBr)N(c1ccccc1)S(=O)(=O)c1cc(Cl)sc1Cl    1.33
Cc1ccc(N(SC(Cl)(Cl)Cl)S(=O)(=O)c2cc(Cl)sc2Cl)cc1    1.02
Cc1ccc(NS(=O)(=O)c2cc(Cl)sc2Cl)cc1    1.69

Could you now consider this next molecule?
Exercise: What does the data say about its log10(IC50)? Entry: "O=S(=O)(Nc1cccc(C(F)(F)F)c1)c1cc(Cl)c(Cl)cc1Cl"
Solution: -1.00

* * *

Test: Therapeutic index, IC50 for Plasmodium falciparum W2 to IC50 for mice (Mus musculus) RAW264.7 cells
Measurement Kind: selectivity ratio
Please reply with the number alone, leaving off any unit.

Exercise: # lookup: selectivity ratio of OC(c1cc(C(F)(F)F)nc2c(C(F)(F)F)cccc12)C1CCCCN1 (stereo unspecified)
Solution: 65

* * *

Target: Cyclin-dependent kinase 7/ cyclin H (Homo sapiens)
Sequence (P51946 whole entry): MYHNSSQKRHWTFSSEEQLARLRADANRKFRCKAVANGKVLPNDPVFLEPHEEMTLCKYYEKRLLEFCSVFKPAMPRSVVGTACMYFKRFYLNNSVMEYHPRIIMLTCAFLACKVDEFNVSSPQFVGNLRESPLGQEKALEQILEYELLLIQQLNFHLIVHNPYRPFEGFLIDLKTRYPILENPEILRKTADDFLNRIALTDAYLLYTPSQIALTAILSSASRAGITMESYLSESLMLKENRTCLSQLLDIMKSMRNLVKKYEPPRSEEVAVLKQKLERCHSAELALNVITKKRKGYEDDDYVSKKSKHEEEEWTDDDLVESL
Sequence (P50613 whole entry): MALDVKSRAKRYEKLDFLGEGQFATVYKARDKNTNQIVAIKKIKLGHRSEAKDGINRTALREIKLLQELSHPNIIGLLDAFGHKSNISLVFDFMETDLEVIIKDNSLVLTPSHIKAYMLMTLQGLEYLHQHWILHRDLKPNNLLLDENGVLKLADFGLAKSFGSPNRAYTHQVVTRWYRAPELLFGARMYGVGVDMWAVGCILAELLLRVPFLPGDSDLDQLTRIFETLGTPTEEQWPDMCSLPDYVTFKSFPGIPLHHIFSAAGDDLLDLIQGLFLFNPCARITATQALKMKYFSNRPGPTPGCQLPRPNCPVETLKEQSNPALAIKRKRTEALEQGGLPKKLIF
Test: Inhibition of human CDK7/Cyclin H/MAT1
Measurement Kind: pIC50
Schema: pIC50 number; meaning minus log10 of the concentration expressed in molar units.

Example results:
Cc1ccc(NS(=O)(=O)c2cc(Cl)sc2Cl)cc1    6.10
O=S(=O)(Nc1cccc(C(F)(F)F)c1)c1cc(Cl)c(Cl)cc1Cl    6.70
Cc1ccc(N(SC(Cl)(Cl)Cl)S(=O)(=O)c2cc(Cl)sc2Cl)cc1    6.15
Cc1ccc(Cl)cc1S(=O)(=O)Nc1ccc(Cl)c(Cl)c1    6.40

Moving on to another molecule below.
Exercise: Entry "O=C(CBr)N(c1ccccc1)S(=O)(=O)c1cc(Cl)sc1Cl" : reported pIC50 = ?
Solution: 4.48

* * *

Biological target: Protein kinase Pfmrk (Plasmodium falciparum, UniProt P90584)
Sequence (P90584 whole entry): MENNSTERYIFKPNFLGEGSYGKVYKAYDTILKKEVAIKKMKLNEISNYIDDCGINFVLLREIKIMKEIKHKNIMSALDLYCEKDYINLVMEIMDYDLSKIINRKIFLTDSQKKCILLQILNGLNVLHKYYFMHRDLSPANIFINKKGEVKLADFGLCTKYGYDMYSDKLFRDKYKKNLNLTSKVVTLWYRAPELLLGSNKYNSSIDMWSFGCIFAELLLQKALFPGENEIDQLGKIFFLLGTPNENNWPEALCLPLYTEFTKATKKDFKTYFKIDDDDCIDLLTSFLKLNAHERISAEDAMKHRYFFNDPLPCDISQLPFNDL
Measurement Kind: pIC50
Give only the number. pIC50 is defined as minus log10 of concentration in molar units.

Sample answers from the record:
O=S(=O)(Nc1ccc(C(F)(F)F)cc1)c1ccc(C(F)(F)F)cc1    4.78
O=S(=O)(Nc1ccc(Cl)cc1)c1c(Cl)sc(Cl)c1Cl    4.50
Cc1ccc(NS(=O)(=O)c2cc(Cl)sc2Cl)cc1    6.22
Cc1ccccc1NC(=O)NC(=O)c1ccccc1Cl    6.70
O=S(=O)(c1cc(Cl)sc1Cl)N(SC(Cl)(Cl)Cl)c1ccccc1    4.53

Exercise: Notebook entry, Protein kinase Pfmrk (Plasmodium falciparum, UniProt P90584) assay: pIC50 of "O=C(CBr)N(c1ccccc1)S(=O)(=O)c1cc(Cl)sc1Cl" = ?
Solution: 6.22

Exercise: Record "Cc1ccc(Cl)cc1S(=O)(=O)Nc1ccc(Cl)c(Cl)c1" : what is its pIC50 with Protein kinase Pfmrk (Plasmodium falciparum, UniProt P90584)?
Solution: 4.82

Exercise: Notebook entry, Protein kinase Pfmrk (Plasmodium falciparum, UniProt P90584) assay: pIC50 of "O=S(=O)(Nc1cc(Cl)cc(Cl)c1)c1cc(Cl)sc1Cl" = ?
Solution: 3.48

Exercise: # get_value(readout= pIC50, system= Protein kinase Pfmrk (Plasmodium falciparum, UniProt P90584)) for "Cc1ccc(N(SC(Cl)(Cl)Cl)S(=O)(=O)c2cc(Cl)sc2Cl)cc1"
Solution: 6.52

Exercise: Form entry - test system: Protein kinase Pfmrk (Plasmodium falciparum, UniProt P90584); read-out: pIC50; compound: "Cc1ccc(N(C(=O)C(Cl)Cl)S(=O)(=O)c2cc(Cl)sc2Cl)cc1"
Solution: 3.90

Exercise: Kindly state the measured pIC50 obtained for "O=S(=O)(Nc1cccc(C(F)(F)F)c1)c1cc(Cl)c(Cl)cc1Cl" with Protein kinase Pfmrk (Plasmodium falciparum, UniProt P90584).
Solution: 6.22

* * *

Test system: MCF7
Test: Cytotoxicity against human MCF7 cells after 24 hrs by MTT assay
Type: functional, cell-based
Settings: MCF7, 24 h
Measurement Kind: IC50 (µM)
Give just the number in µM; leave the unit off.

Cc1ccc(Cl)cc1S(=O)(=O)Nc1ccc(Cl)c(Cl)c1    57.3

Exercise: Recorded IC50 of OC(c1cc(C(F)(F)F)nc2c(C(F)(F)F)cccc12)C1CCCCN1 (stereo not drawn) , please.
Solution: 10.6

Exercise: Which IC50 value belongs to "Cc1ccc(NS(=O)(=O)c2cc(Cl)sc2Cl)cc1" ?
Solution: 66.1

Exercise: Quick one: IC50 for "O=C1Cc2c([nH]c3ccc([N+](=O)[O-])cc23)-c2ccccc2N1" ?
Solution: 2.7

Exercise: Which IC50 is reported for this compound? "O=S(=O)(Nc1cccc(C(F)(F)F)c1)c1cc(Cl)c(Cl)cc1Cl"
Solution: 63.8

* * *

Molecular target: Cyclin-dependent kinase 2/cyclin A (Homo sapiens)
Experiment: Inhibition of human CDK2/Cyclin A
Measurement Kind: IC50 (µM)
# output: bare number, implied unit µM

A selection of reference data follows.
O=S(=O)(Nc1cccc(C(F)(F)F)c1)c1cc(Cl)c(Cl)cc1Cl    10
O=C(CBr)N(c1ccccc1)S(=O)(=O)c1cc(Cl)sc1Cl    28.5
Cc1ccc(N(SC(Cl)(Cl)Cl)S(=O)(=O)c2cc(Cl)sc2Cl)cc1    11.5
Cc1ccc(NS(=O)(=O)c2cc(Cl)sc2Cl)cc1    31.4

Exercise: Given "Cc1ccc(Cl)cc1S(=O)(=O)Nc1ccc(Cl)c(Cl)c1" , state its recorded IC50.
Solution: 10.5

* * *

Assay: Cytotoxicity against human Hs578 cells after 24 hrs by MTT assay
Assay type: functional, cell-based
Conditions: Hs578, 24 h
pIC50: −log10 of the molar value.
So basically: pIC50 at 5 or higher? That is 1 (yes). Lower than 5? That is 0 (no).

Exercise: In plain terms: is recorded pIC50 at least 5 for "Cc1ccc(N(SC(Cl)(Cl)Cl)S(=O)(=O)c2cc(Cl)sc2Cl)cc1" ?
Solution: 0 (no)

Exercise: Assess whether reported pIC50 for "O=C1Nc2ccccc2/C1=C1/Nc2ccccc2C1=O" sits at 5 or higher.
Solution: 1 (yes)

Exercise: API: above_or_equal(metric=pIC50, cutoff=5) for item "Cc1ccc(Cl)cc1S(=O)(=O)Nc1ccc(Cl)c(Cl)c1"
Solution: 0 (no)

Exercise: Tell me whether pIC50 is at least 5 here: "O=S(=O)(Nc1cccc(C(F)(F)F)c1)c1cc(Cl)c(Cl)cc1Cl"
Solution: 0 (no)

Exercise: // inclusive: pIC50 at least 5? input: "Cc1ccc(NS(=O)(=O)c2cc(Cl)sc2Cl)cc1"
Solution: 0 (no)

Exercise: Confirm if pIC50 reported for the compound "O=C1Cc2c([nH]c3ccc([N+](=O)[O-])cc23)-c2ccccc2N1" is 5 or above.
Solution: 1 (yes)

Exercise: Quick check: does "O=C(CBr)N(c1ccccc1)S(=O)(=O)c1cc(Cl)sc1Cl" have pIC50 greater than or equal to 5?
Solution: 0 (no)

* * *

Tested on: MCF7
Assay: Cytotoxicity against human MCF7 cells after 24 hrs by MTT assay
Assay type: functional, cell-based
Details: MCF7, 24 h
Measurement Kind: IC50 (µM)
Record the value in µM, omitting the unit from your answer.

Study these solved cases before continuing.
Cc1ccc(N(SC(Cl)(Cl)Cl)S(=O)(=O)c2cc(Cl)sc2Cl)cc1    30.1
O=C(CBr)N(c1ccccc1)S(=O)(=O)c1cc(Cl)sc1Cl    62

Continue with the compound presented below.
Exercise: Fill in the blank: the reported IC50 of O=C1Nc2ccccc2/C1=C1/Nc2ccccc2C1=O [INDIRUBIN] is ____.
Solution: 6.7
